target-under-test: KLF10 (Homo sapiens, UniProt Q13118)
Sequence (Q13118 whole entry): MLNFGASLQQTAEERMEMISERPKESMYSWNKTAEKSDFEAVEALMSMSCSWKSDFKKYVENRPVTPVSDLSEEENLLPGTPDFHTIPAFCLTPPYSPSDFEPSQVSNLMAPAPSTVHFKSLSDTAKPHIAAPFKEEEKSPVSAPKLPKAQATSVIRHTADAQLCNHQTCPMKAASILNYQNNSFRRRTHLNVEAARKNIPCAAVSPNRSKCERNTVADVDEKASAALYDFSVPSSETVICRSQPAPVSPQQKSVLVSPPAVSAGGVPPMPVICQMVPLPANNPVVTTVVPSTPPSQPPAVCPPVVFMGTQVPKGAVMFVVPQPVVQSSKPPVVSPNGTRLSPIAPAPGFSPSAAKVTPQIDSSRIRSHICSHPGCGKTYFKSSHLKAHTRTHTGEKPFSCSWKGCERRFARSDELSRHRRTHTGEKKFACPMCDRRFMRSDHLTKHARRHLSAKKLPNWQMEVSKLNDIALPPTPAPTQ
measurement-notes: competition; 150 mM NaCl, 50 mM Tris pH 8, 0.25% NP-40, 1 mM TCEP; 4 C, 2 h; 100 ug HeLa nuclear lysate; free competitor against 200 nM immobilised SP/KLF wild-type
assay-conditions: protein: extract
experimental-endpoint: pIC50
Bear in mind: pIC50 is minus log10 of a mol/L concentration; give just that figure.

Fill in: pIC50 of SP/KLF wild-type (dsDNA) DNA 1: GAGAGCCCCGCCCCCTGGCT DNA 2: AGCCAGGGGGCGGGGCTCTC is ___
6.96
